- procedure_details: In vitro cytotoxicity testing (3T3 NRU test)
- Type: cell-based
- experimental_conditions: mouse
Non-standard residues stand in square brackets, D forms with d. Residues, ends and D or L forms follow the SMILES beside them. *: point of attachment. Acetyl(1,8-naphthalimido) = O=C1c2cccc3cccc(c23)C(=O)N1CC(=O)*; Caffeoyl = O=C(/C=C/c1ccc(O)c(O)c1)*; Nle = CCCC[C@H](N)C(=O)O; βAla = NCCC(=O)O
readout: IC50 at 24 h (µM)
Write down the numeric answer in µM and omit the unit.

# annotated cases, reported IC50 at 24 h shown
{"compound": "CC(C)C[C@H](NC(=O)[C@H](CCCCN)NC(=O)CN1C(=O)c2cccc3cccc(c23)C1=O)C(=O)N[C@@H](C)C(=O)N[C@@H](CCCCN)C(=O)N[C@@H](CC(C)C)C(=O)N[C@@H](C)C(=O)N[C@@H](CCCCN)C(N)=O [Si7, 1,8-naphthalimideG-KLAKLAK-NH2] ({Acetyl(1,8-naphthalimido)}-KLAKLAK-NH2)", "u": "µM", "IC50 at 24 h": 3420}
{"compound": "CC(C)C[C@H](NC(=O)[C@H](CCCCN)NC(=O)/C=C/c1ccc(O)c(O)c1)C(=O)N[C@@H](C)C(=O)N[C@@H](CCCCN)C(=O)N[C@@H](CC(C)C)C(=O)N[C@@H](C)C(=O)N[C@@H](CCCCN)C(N)=O [Si8, Caf-KLAKLAK-NH2] (Caffeoyl-KLAKLAK-NH2)", "u": "µM", "IC50 at 24 h": 710}
{"compound": "CC(C)C[C@H](NC(=O)[C@H](CCCCN)NC(=O)/C=C/c1ccc(O)c(O)c1)C(=O)NCCC(=O)N[C@@H](CCCCN)C(=O)N[C@@H](CC(C)C)C(=O)NCCC(=O)N[C@@H](CCCCN)C(N)=O [Si11, Caf-KLβAKLβAK-NH2] (Caffeoyl-KL[βAla]KL[βAla]K-NH2)", "u": "µM", "IC50 at 24 h": 742}
{"compound": "CCCC[C@H](NC(=O)[C@H](CCCCN)NC(=O)/C=C/c1ccc(O)c(O)c1)C(=O)N[C@@H](C)C(=O)N[C@@H](CCCCN)C(=O)N[C@@H](CCCC)C(=O)N[C@@H](C)C(=O)N[C@@H](CCCCN)C(N)=O [Si15, Caf-KnLAKnLAK-NH2] (Caffeoyl-K[Nle]AK[Nle]AK-NH2)", "u": "µM", "IC50 at 24 h": 1510}

Fill in: IC50 at 24 h of CC(C)C[C@H](NC(=O)[C@H](CCCCN)NC(=O)CCNC(=O)[C@H](CC(C)C)NC(=O)[C@@H](N)CCCCN)C(=O)NCCC(=O)N[C@@H](CCCCN)C(N)=O [Si3, KLβAKLβAK-NH2] (H-KL[βAla]KL[βAla]K-NH2; N-terminus assumed) is ___
2870

Fill in: IC50 at 24 h of CC(C)C[C@H](NC(=O)[C@H](CCCCN)NC(=O)CCNC(=O)[C@H](CC(C)C)NC(=O)[C@H](CCCCN)NC(=O)CN1C(=O)c2cccc3cccc(c23)C1=O)C(=O)NCCC(=O)N[C@@H](CCCCN)C(N)=O [Si2, 1,8-naphthalimideG-KLβAKLβAK-NH2] ({Acetyl(1,8-naphthalimido)}-KL[βAla]KL[βAla]K-NH2) is ___
1430

Fill in: IC50 at 24 h of CCCC[C@H](NC(=O)[C@H](CCCCN)NC(=O)CN1C(=O)c2cccc3cccc(c23)C1=O)C(=O)N[C@@H](C)C(=O)N[C@@H](CCCCN)C(=O)N[C@@H](CCCC)C(=O)N[C@@H](C)C(=O)N[C@@H](CCCCN)C(N)=O [Si14, 1,8-naphthalimideG-KnLAKnLAK-NH2] ({Acetyl(1,8-naphthalimido)}-K[Nle]AK[Nle]AK-NH2) is ___
2890
